Provenance of the data: the supplement of paper PMC9732359

- testMethodNotes: protein stability index of a GFP-peptide fusion (yeast GPS) (PSI 1-4); higher = more stable; sorted into four equal gates, so the index is relative within each strain
- settings: pdr5∆
Returns one of class 1 or class 0; class 1 when protein stability index is >= 3.

Worked examples follow.
> print(dat)
               recordsequence  categorylabel
1   IRYNSVEIQEVPRTADR [RPC82]        class 0
2    FQETLDSTVVYPLPKFP [MED8]        class 1
3    NLSSNVNFTEIGGLIPQ [YCS4]        class 0
4  EDRNKIHQYLFQEGVVV [RPS10A]        class 0

We now examine a further sequence.
Is it the case that KNSSVSSLMNGLGYVFE [SRB5] has protein stability index reaching or exceeding 3?
class 0

----------
Answer each item with its documented protein stability index.
- testMethodNotes: protein stability index of a GFP-peptide fusion (yeast GPS) (PSI 1-4); higher = more stable; sorted into four equal gates, so the index is relative within each strain
- settings: doa10∆

Before answering, review these 2 worked examples.
> print(dat)
                     recordsequence                   metric  reported
1          REKRDRTHFKRMRFPPF [PRP8]  protein stability index      2.27
2  IEDLRADINSNRLSNPQ [YOR098C/NUP1]  protein stability index      2.64

# per-item lookup of protein stability index; items listed below
1. QNPENLLSEKILQYFEK [SIR3]
2. DLNKENKLLRRKLMEME [YIL149C/MLP2]
3. GSGNNNEIESRQLTSLG [SNU114]
4. INIDDLLYELTAFKATV [YJL039C/NUP192]
5. LMRSCFYLMVSSLSFGP [YJL039C/NUP192]
6. GLIPYPHHNQSPRNTYQ [RET1]
7. FEKDLMAYFDENLNRNW [BRN1]
8. YPNSSKLKRNSDRREHD [LIN1]

[2.83, 3.41, 3.4, 2.58, 1.64, 2.58, 2.93, 3.25]

# per-item lookup of protein stability index; items listed below
1. EETYEEKPQFKDGETTD [RPO26]
2. KEIKTNEYVIKTPVFTT [YMR129W/POM152]
3. SGNSANNMNVNMNLNPQ [GAL11]
4. VSKFYDKINQLSVVKYL [RPN9]

[3.24, 2.1, 2.85, 2.25]

# per-item lookup of protein stability index; items listed below
1. QRDFRKHGAVHMSTYLK [RPL21B]
2. SAVKRLLHVAVSDSNDD [RPN2]
3. TNFNEITNTDETITTKR [SWP82]

1: 2.65; 2: 2.39; 3: 3.13

# per-item lookup of protein stability index; items listed below
1. HMSTYLKIYKVGDIVDI [RPL21B]
2. SKLKKETASFIPTKESL [YIL149C/MLP2]
3. IFNGETLEDALRRIITD [GRR1]
4. LQFKSIREIDVAGGKKA [RPS7A]
5. VGKFLGYVSSLVEPSKV [FAS1]
6. ASFGKNLQIRQLFNWCL [DSN1]
7. GPSAMRLSRCIRDNKLV [RPC82]
8. TTLKLSPSPILLTSAGC [NUT1]

[1.69, 2.74, 1.96, 1.45, 1.71, 1.2, 1.94, 1.47]
